System: RAW264.7
Test: Anti-inflammatory activity in mouse RAW264.7 cells assessed as inhibition of LPS-induced reduction in TNFalpha production
Assay type: functional, cell-based
Readout label: pIC50
Entry type: numeric. Quantity: pIC50, the -log10 of concentration in molar units.

Query :: Quick check: pIC50 of `CCc1ccc(C/C=C2\CCOc3cc(OC)cc(OC)c3C2=O)cc1` ?
Result :: 5.28

* * *

Biological target: Bifunctional epoxide hydrolase 2 (Homo sapiens, UniProt P34913)
Sequence (P34913 whole entry): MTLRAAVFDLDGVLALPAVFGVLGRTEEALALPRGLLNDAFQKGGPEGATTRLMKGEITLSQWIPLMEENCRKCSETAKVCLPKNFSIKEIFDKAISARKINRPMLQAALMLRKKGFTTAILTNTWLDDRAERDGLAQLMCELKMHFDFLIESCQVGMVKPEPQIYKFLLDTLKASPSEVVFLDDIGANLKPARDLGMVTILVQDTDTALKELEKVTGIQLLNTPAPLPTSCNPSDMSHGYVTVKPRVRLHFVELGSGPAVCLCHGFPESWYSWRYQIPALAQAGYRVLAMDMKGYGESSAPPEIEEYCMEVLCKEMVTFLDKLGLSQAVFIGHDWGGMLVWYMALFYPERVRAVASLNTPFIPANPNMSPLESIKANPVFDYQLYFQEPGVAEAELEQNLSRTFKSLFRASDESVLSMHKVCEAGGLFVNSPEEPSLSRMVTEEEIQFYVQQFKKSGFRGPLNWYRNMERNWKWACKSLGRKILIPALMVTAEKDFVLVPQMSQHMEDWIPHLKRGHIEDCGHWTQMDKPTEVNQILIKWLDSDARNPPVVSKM
Assay: Inhibition of human recombinant sEH
Readout label: pIC50
Entry type: numeric. Quantity: pIC50, the -log10 of concentration in molar units.

Query :: Quick check: pIC50 of `O=C(O)c1ccc(CSc2nc3cc(F)c(-c4ncn[nH]4)cc3[nH]2)cc1` ?
Result :: 6.15

* * *

Molecular target: Prostaglandin G/H synthase 2 (Homo sapiens, UniProt P35354)
Sequence (P35354 whole entry): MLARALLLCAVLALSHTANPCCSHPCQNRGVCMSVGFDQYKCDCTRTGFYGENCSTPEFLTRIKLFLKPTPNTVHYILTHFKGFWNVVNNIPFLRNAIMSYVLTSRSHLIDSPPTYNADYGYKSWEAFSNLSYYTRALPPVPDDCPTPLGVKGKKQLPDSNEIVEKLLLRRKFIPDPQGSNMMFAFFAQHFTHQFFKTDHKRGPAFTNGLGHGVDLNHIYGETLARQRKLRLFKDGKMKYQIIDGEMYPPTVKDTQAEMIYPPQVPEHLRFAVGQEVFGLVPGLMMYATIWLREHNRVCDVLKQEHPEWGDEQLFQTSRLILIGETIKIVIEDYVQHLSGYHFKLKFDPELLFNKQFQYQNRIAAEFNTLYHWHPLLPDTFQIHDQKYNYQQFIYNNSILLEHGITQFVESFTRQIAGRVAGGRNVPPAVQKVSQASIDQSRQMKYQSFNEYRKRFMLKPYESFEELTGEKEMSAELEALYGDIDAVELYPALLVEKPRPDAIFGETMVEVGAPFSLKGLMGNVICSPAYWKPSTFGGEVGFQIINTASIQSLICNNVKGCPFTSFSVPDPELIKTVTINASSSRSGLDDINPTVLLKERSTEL
Assay: Inhibition of COX-2 (unknown origin) assessed as inhibition at 10 uM
Readout label: IC50
The number alone won't do; follow it with the unit.

Query :: Quick check: IC50 of COc1ccc(/C=C2/SC(=S)C(Nc3nc4c(cnn4-c4ccccc4)c(=O)n3-c3ccccc3)C2=O)cc1OC (stereo unspecified) ?
Result :: 0.37 µM

* * *

Biological target: Polyunsaturated fatty acid lipoxygenase ALOX15 (Homo sapiens, UniProt P16050)
Sequence (P16050 whole entry): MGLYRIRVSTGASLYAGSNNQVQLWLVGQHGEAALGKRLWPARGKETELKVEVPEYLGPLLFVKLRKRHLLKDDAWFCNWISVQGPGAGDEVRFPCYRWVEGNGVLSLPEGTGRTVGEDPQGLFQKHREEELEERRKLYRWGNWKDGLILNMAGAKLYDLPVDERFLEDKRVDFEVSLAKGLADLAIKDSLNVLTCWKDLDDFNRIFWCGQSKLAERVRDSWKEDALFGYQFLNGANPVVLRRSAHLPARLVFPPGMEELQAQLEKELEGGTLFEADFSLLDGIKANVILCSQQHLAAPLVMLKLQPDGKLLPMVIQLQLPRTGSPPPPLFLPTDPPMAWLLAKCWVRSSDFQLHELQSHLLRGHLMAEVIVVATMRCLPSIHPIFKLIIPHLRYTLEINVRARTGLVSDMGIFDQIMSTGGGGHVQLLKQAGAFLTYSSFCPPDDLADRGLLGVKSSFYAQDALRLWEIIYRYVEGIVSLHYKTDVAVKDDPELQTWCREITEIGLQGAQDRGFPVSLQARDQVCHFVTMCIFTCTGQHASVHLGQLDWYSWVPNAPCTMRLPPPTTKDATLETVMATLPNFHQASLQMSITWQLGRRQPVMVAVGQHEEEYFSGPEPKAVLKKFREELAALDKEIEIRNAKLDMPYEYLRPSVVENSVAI
Assay: Inhibition of LOX (unknown origin) at 1 uM
Readout label: IC50 (µM)
Give just the numeric value; µM need not be written.

Query :: Quick check: IC50 of `COc1ccc(-c2nc3c(C(N)=O)cccc3[nH]2)cc1` ?
Result :: 9.51

* * *

Target: Polyunsaturated fatty acid lipoxygenase ALOX15 (Homo sapiens)
Assay: Inhibition of 15-LOX (unknown origin)
Readout label: pIC50
Entry type: numeric. Quantity: pIC50, the -log10 of concentration in molar units.

Query :: Quick check: pIC50 of `O=C1c2ccccc2C(=O)N1c1nc2cc([N+](=O)[O-])ccc2n1Cc1ccc(-c2ccccc2)cc1` ?
Result :: 5.99

* * *

Can you tell me IC50 for the items I'm about to list?
Molecular target: Prostaglandin G/H synthase 2 (Homo sapiens, UniProt P35354)
Assay: Inhibition of human COX-2 assessed as by fluorescence based microplate reader assay
The number alone won't do; follow it with the unit.

Query :: Quick check: IC50 of `CCOc1cc(C)nn1C(=O)CNc1ncnc2c1c(C)nn2-c1ccccc1` ?
Result :: 0.16 µM

Query :: Now consider `CSc1nn(-c2ccc(S(C)(=O)=O)cc2)c2ncnc(NCC(=O)/N=C/c3ccco3)c12` .
Result :: 0.1 µM

* * *

Tested on: RAW264.7
Experiment: Anti-inflammatory activity in mouse RAW264.7 cells assessed as inhibition of LPS-induced IL-6 production measured after 24 hrs by EIA method
Format: functional, cell-based
Conditions: RAW264.7, 24 h
Readout label: IC50 (nM)
Give just the numeric value; nM need not be written.

Query :: Quick check: IC50 of `CCCCc1nn(C)c2c(NCCCN3CCOCC3)nc(/C=C/c3cc(OC)c(OC)c(OC)c3)nc12` ?
Result :: 2640

* * *

Test: Cytotoxicity against mouse RAW264.7 cells assessed as decreased cell viability measured after 24 hrs by MTT assay
Format: toxicity, cell-based
Readout label: CC50 at 24 h (µM)
Give just the numeric value; µM need not be written.

Query :: Quick check: CC50 at 24 h of `CCc1ccc(C/C=C2\CCOc3cc(OC)cc(OC)c3C2=O)cc1` ?
Result :: 43.6
